test: Plasma pharmacokinetic studies of idronoxil in rats (rectal in cocoa butter vs intestinal in lipid emulsion); format: in vivo, Male Sprague-Dawley rats; conditions: male, Sprague-Dawley, rat, plasma, other: rectal, 10 mg/kg, Rectal delivery, cocoa butter, 10 mg/kg, 8 hr; read-out: Idronoxil Plasma Concentration Rat 2
assay readout: concentration at 8 h

Quick note, concentration at 8 h for Oc1ccc(C2=Cc3ccc(O)cc3OC2)cc1 landed at 33.4 ng/mL

====

assay: Plasma pharmacokinetic studies of idronoxil in rats (rectal in cocoa butter vs intestinal in lipid emulsion); assay type: in vivo, Male Sprague-Dawley rats; settings: male, Sprague-Dawley, rat, plasma, other: rectal, 10 mg/kg, Rectal delivery, cocoa butter, 10 mg/kg, 7 hr; read-out: Idronoxil Plasma Concentration Mean
assay readout: concentration at 7 h (ng/mL)
API: value field is a number in ng/mL; no unit string.

Quick note, concentration at 7 h for Oc1ccc(C2=Cc3ccc(O)cc3OC2)cc1 [Idronoxil] landed at 25
